The reported measurements were obtained from patent US20260116991A1.

# tested_on: monkey GPC3-His protein (monkey)
# method_notes: ELISA, monkey GPC3-His coated; antibody 13.33 nM
assay_metric: OD450 nm
Write the number on its own, no unit after it.

Examples with answers:
>>> quantitative_readout("hAb006LH2L1a (antibody, human IgG1, V domains shown) VH: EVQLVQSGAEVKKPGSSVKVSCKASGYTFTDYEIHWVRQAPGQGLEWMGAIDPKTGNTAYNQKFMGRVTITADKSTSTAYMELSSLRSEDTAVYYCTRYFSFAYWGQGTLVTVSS VL: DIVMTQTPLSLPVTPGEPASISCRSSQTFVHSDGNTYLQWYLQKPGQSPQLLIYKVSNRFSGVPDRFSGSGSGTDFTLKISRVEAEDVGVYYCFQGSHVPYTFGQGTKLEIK")
1.84
>>> quantitative_readout("hAb003LH3L1b (antibody, human IgG1, V domains shown) VH: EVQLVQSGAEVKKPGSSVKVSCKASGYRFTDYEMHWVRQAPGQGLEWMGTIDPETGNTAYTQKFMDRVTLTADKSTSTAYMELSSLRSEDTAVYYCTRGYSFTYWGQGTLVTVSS VL: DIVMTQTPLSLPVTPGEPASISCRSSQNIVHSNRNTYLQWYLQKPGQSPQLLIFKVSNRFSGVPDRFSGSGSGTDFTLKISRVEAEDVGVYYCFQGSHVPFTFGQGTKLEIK")
2.4
>>> quantitative_readout("hAb003LH1L1a (antibody, human IgG1, V domains shown) VH: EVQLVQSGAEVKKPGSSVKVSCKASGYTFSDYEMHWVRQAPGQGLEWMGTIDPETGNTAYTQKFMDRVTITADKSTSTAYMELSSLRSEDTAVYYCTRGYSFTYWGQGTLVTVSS VL: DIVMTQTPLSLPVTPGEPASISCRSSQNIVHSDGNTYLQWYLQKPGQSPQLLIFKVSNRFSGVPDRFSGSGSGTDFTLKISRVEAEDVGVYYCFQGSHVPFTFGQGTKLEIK")
2.35
>>> quantitative_readout("hAb007LH3L1 (antibody, human IgG1, V domains shown) VH: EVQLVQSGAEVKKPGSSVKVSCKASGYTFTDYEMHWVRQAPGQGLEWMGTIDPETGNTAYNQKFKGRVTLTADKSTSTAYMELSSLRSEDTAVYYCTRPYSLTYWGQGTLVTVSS VL: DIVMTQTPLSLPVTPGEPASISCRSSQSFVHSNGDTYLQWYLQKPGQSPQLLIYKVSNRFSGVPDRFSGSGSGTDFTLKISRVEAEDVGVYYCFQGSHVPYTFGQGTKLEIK")
2.39
>>> quantitative_readout("hAb005LH2L1a (antibody, human IgG1, V domains shown) VH: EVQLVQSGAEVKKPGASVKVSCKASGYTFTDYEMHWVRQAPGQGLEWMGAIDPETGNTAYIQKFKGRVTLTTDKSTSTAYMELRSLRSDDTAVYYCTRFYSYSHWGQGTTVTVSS VL: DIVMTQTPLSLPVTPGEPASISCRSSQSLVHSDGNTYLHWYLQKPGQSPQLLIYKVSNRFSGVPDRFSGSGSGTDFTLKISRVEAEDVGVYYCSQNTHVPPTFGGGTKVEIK")
0.276

Kindly note the recorded OD450 nm for hAb005LH3L1b (antibody, human IgG1, V domains shown) VH: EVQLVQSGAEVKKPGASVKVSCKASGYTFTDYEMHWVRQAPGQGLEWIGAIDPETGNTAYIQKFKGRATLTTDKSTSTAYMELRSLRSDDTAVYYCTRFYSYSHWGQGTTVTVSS VL: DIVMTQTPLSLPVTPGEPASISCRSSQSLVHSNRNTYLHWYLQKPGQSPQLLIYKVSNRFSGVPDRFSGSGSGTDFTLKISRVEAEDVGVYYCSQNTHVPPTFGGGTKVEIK , which is 1.27

Entry hAb003LH3L1a (antibody, human IgG1, V domains shown) VH: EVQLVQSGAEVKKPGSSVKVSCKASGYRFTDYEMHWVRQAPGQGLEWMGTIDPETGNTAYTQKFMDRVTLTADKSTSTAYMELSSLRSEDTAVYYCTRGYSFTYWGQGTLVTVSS VL: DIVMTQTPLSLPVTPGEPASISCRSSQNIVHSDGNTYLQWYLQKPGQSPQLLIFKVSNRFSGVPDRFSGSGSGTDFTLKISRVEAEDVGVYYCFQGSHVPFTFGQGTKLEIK ; OD450 nm = 2.3
